Experiment: Cmax in common marmoset at 40 mg/kg, po BID measured on day 7 by […] analysis
Format: ADME, organism-based, Callithrix jacchus
Design: dose 40 mg/kg, route oral
Settings: in vivo
measurement-label: Cmax (ng/mL)
The reply should contain only the number, in ng/mL.

Task: For the molecule C[C@H]1COc2c(N3CCN(C)CC3)c(F)cc3c(=O)c(C(=O)O)cn1c23.C[C@H]1COc2c(N3CCN(C)CC3)c(F)cc3c(=O)c(C(=O)O)cn1c23.O , give its measured Cmax value.
Output: 20900

----------
Assay: Half life in common marmoset at 40 mg/kg, po BID measured on day 7 by […] analysis
Type: ADME, organism-based, Callithrix jacchus
Set-up: dose 40 mg/kg, route oral
Conditions: in vivo
measurement-label: half-life (h)
The reply should contain only the number, in h.

Task: For the compound C[C@H]1COc2c(N3CCN(C)CC3)c(F)cc3c(=O)c(C(=O)O)cn1c23.C[C@H]1COc2c(N3CCN(C)CC3)c(F)cc3c(=O)c(C(=O)O)cn1c23.O , give its measured half-life value.
Output: 2.3

----------
Assay: Half life in common marmoset at 40 mg/kg, po measured on day 1 by […] analysis
Assay type: ADME, organism-based, Callithrix jacchus
Design: dose 40 mg/kg, route oral
Settings: in vivo
measurement-label: half-life (min)
The reply should contain only the number, in min.

Task: For the compound C[C@H]1COc2c(N3CCN(C)CC3)c(F)cc3c(=O)c(C(=O)O)cn1c23.C[C@H]1COc2c(N3CCN(C)CC3)c(F)cc3c(=O)c(C(=O)O)cn1c23.O , give its measured half-life value.
Output: 234

----------
Test: Tmax in human at 500 mg, po QD measured on day 10 by […] analysis
Assay type: ADME, organism-based
Conditions: in vivo
measurement-label: Tmax (h)
The reply should contain only the number, in h.

Task: For the compound C[C@H]1COc2c(N3CCN(C)CC3)c(F)cc3c(=O)c(C(=O)O)cn1c23.C[C@H]1COc2c(N3CCN(C)CC3)c(F)cc3c(=O)c(C(=O)O)cn1c23.O [LEVOFLOXACIN] , give its measured Tmax value.
Output: 1.1

----------
Assay: Tmax in Rhesus monkey at 15 mg/kg followed by 4 mg/kg in 12 hrs dosing interval by […] analysis
Format: ADME, organism-based, Macaca mulatta
Conditions: in vivo
measurement-label: Tmax (h)
The reply should contain only the number, in h.

Task: For the compound C[C@H]1COc2c(N3CCN(C)CC3)c(F)cc3c(=O)c(C(=O)O)cn1c23.C[C@H]1COc2c(N3CCN(C)CC3)c(F)cc3c(=O)c(C(=O)O)cn1c23.O , give its measured Tmax value.
Output: 2.2

----------
Experiment: Cmax in common marmoset at 40 mg/kg, po measured on day 1 by […] analysis
Assay type: ADME, organism-based, Callithrix jacchus
Set-up: dose 40 mg/kg, route oral
Settings: in vivo
measurement-label: Cmax
Put down the number, then write its unit next to it.

Task: For the compound C[C@H]1COc2c(N3CCN(C)CC3)c(F)cc3c(=O)c(C(=O)O)cn1c23.C[C@H]1COc2c(N3CCN(C)CC3)c(F)cc3c(=O)c(C(=O)O)cn1c23.O , give its measured Cmax value.
Output: 18800 ng/mL
